system: HepG2 cell line; experiment: In vitro toxicity study on HepG2 cell line (resazurin, viability and IC50); assay type: cell-based, human; details: HepG2 cells, 50 μM lipid, 48 h post-treatment, resazurin, relative to ethanol vehicle controls
MEASURED PROPERTY: Viability (%) at different lipid concentrations, mean
Express your answer in %, writing the number without its unit.

Given the molecule CCCCC/C=C\C/C=C\CCCCCCCCOC(CCCCCCC/C=C\C/C=C\CCCCC)O[Si](C)(C)OCCCCCCN(C)CC(O)CO (centres unmarked) [Example 59] , what is its reported Viability (%) at different lipid concentrations, mean?
112.9

Try the molecule CCCCCCCC/C=C\CCCCCCCCOC(=O)C(C)(C)CC(OCCCCCCCC/C=C\CCCCCCCC)O[Si](C)(C)OCCCCCCN1CCCC1CO (centres unmarked) [Example 90]
100.5

Try the molecule CCCCCCCC/C=C\CCCCCCCC(OCCCCCCCCCCCCCCC(C)C)O[Si](C)(C)OCCCCCCN(CCO)CCO (centres unmarked) [Example 76]
100.8

Try the molecule CCCCC/C=C\C/C=C\CCCCCCCC(OCCCCCCCCCCCCCCCC)O[Si](C)(C)OCCCCCCN(CCO)CCO (centres unmarked) [Example 44]
112.7

Try the molecule C#CCN(C)CCCCCCO[Si](C)(C)OC(CC(C)(C)C(=O)OCCCCCCCC/C=C\CCCCCCCC)OCCCCCCCC/C=C\CCCCCCCC (centres unmarked) [Example 97]
97.5

Try the molecule CCCCC/C=C\C/C=C\CCCCCCCCOC(CCCCCCC/C=C\C/C=C\CCCCC)O[Si](C)(C)OCCCCCCN(C)CCO (centres unmarked) [Example 56]
94.8

Try the molecule CCCCC/C=C\C/C=C\CCCCCCCCOC(CCCCCCC/C=C\C/C=C\CCCCC)O[Si](C)(C)OCCCCCCN1CCCCC1 (centres unmarked) [Example 57]
94.3

Try the molecule CCCCCCCCCCCCCCCCOC(CCCCCCCCCCCCCCC)O[Si](C)(C)OCCCCCCN(CCO)CCO (centres unmarked) [Example 49]
101.0

Try the molecule CCCCCCCC/C=C\CCCCCCCCOC(=O)C(C)(C)CC(OCCCCCCCC/C=C\CCCCCCCC)O[Si](C)(C)OCCCCCCN(CCO)CCO (centres unmarked) [Example 84]
104.5

Try the molecule CCCCC/C=C\C/C=C\CCCCCCCCOC(CCCCCN(C)CC(O)CO)O[Si](C)(C)OCCCCCCCC/C=C\C/C=C\CCCCC (centres unmarked) [Example 66]
96.5

Try the molecule CCCCCCCC/C=C\CCCCCCCCOC(=O)C(C)(C)CC(OCCCCCCCC/C=C\CCCCCCCC)O[Si](C)(C)OCCCCCCN1CCCCC1CO (centres unmarked) [Example 89]
102.8

Try the molecule CCCCC/C=C\C/C=C\CCCCCCCCOC(CCCCCCC/C=C\C/C=C\CCCCC)O[Si](C)(C)OCCCCCCN(CCCO)CCCO (centres unmarked) [Example 61]
106.3

Try the molecule CCCCC/C=C\C/C=C\CCCCCCCCOC(CCCCCCC/C=C\C/C=C\CCCCC)O[Si](C)(C)OCCCCCCN(C)C (centres unmarked) [Example 79]
101.89

Try the molecule CCCCCCCC/C=C\CCCCCCCC(OCCCCCCCCCCCCCCCC)O[Si](C)(C)OCCCCCCN(CCO)CCO (centres unmarked) [Example 42]
102.2

Try the molecule CCCCC/C=C\C/C=C\CCCCCCCCOC(CCCCCCC/C=C\C/C=C\CCCCC)O[Si](C)(C)OCCCCCCN(C)Cc1cn(C2[C@H](O)O[C@H](CO)[C@@H](O)[C@@H]2O)nn1 (some centres unmarked) [Example 68]
120.2

Try the molecule CCCCCCCC/C=C\CCCCCCCCOC(=O)C(C)(C)CC(OCCCCCCCC/C=C\CCCCCCCC)O[Si](C)(C)OCCCCCCN(C)CC(O)CO (centres unmarked) [Example 92]
109.4

Try the molecule CCCCCCCC/C=C\CCCCCCCCOC(CC[C@@H](C)C1CCC2C3CCC4C[C@H](OC)CC[C@]4(C)C3CC[C@@]21C)O[Si](C)(C)OCCCCCCN(CCO)CCO (some centres unmarked) [Example 51]
100.0

Try the molecule C#CCN(C)CCCCCCO[Si](C)(C)OC(CCCCCCC/C=C\C/C=C\CCCCC)OCCCCCCCC/C=C\C/C=C\CCCCC (centres unmarked) [Example 67]
95.6
